- Assay details: Solubility in PBS
- Format: physicochemical
Starred links: 1 amine or outer side, 2 acyl side, 3 side chain; linkers in the order of their positions; H or OH if unused. Non-standard residues stand in square brackets, D forms with d. Residues, ends and D or L forms follow the SMILES beside them. X2 = C=CCCCC(CCCC=C)(N[*:1])C(=O)[*:2]; Bta = N[C@@H](Cc1csc2ccccc12)C(=O)O; αAllylPro = C=CC[C@@]1(C(=O)O)CCCN1; S8 = C=CCCCCCC[C@](C)(N)C(=O)O
Value kind: Solubility (µM)
Numbers only; they are read as µM.

What value of Solubility has been reported for the following compound? CC[C@H](C)[C@@H]1NC(=O)[C@H](CC(=O)O)NC(=O)[C@]2(CC=CCCCC3(CCCC=CCCCCCC[C@@](C)(C(=O)N[C@@H](Cc4ccccc4)C(=O)N[C@@H](Cc4csc5ccccc45)C(=O)N[C@@H](Cc4ccc(O)cc4)C(N)=O)NC(=O)[C@H](CCC(N)=O)NC(=O)[C@H](Cc4ccccc4)NC(=O)[C@H](C)NC(=O)[C@H](C)NC(=O)[C@H](CCC(=O)O)NC(=O)[C@H](CC(=O)O)NC3=O)NC1=O)CCCN2C(C)=O (some centres unmarked) 50

Please report the recorded Solubility for CC(=O)N1CCC[C@]12CC=CCCCC1(CCCC=CCCCOC(=O)N3CC[C@@](C(=O)N[C@@H](Cc4ccccc4)C(=O)N[C@@H](Cc4csc5ccccc45)C(=O)N[C@@H](CCC(N)=O)C(N)=O)(C3)NC(=O)[C@H](CC(C)C)NC(=O)[C@H](Cc3ccccc3)NC(=O)[C@H](C)NC(=O)[C@H](C)NC(=O)[C@H]([C@@H](C)O)NC(=O)[C@H](CC(=O)O)NC1=O)NC(=O)[C@H](CC(C)(C)C)NC(=O)[C@H](CC(N)=O)NC2=O (single isomer, unassigned) [I-1284] . 10

Which Solubility value belongs to C=CCCCCCC[C@](C)(NC(=O)[C@H](CCC(N)=O)NC(=O)[C@H](Cc1ccccc1)NC(=O)[C@H](C)NC(=O)[C@H](C)NC(=O)[C@H](CC(=O)O)NC(=O)[C@H](CC(=O)O)NC(=O)C(CCCC=C)(CCCC=C)NC(=O)[C@H](C)NC(=O)[C@H](CC(=O)O)NC(=O)[C@]1(CC=C)CCCN1C(C)=O)C(=O)N[C@@H](Cc1ccccc1)C(=O)N[C@@H](Cc1csc2ccccc12)C(=O)N[C@@H](CCC(N)=O)C(N)=O [I-578] (Ac-[αAllylPro]DA[X2]DDAAFQ[S8]F[Bta]Q-NH2) ? 50

Field request: Solubility | item: COCCC(=O)N1CCC[C@]12CC=CCCCC1(CCCC=CCCCCCC[C@@](C)(C(=O)N[C@@H](Cc3ccccc3Cl)C(=O)N[C@@H](Cc3csc4ccccc34)C(=O)N[C@@H](CCC(N)=O)C(N)=O)NC(=O)[C@H]([C@@H](C)O)NC(=O)[C@H](Cc3ccccc3)NC(=O)[C@H](C)NC(=O)[C@H](C)NC(=O)[C@H](CC(=O)O)NC(=O)[C@H](CC(=O)O)NC1=O)NC(=O)[C@H](CC(C)(C)C)NC(=O)[C@H](CC(=O)O)NC2=O (some centres unmarked) 50

Which value of Solubility has been reported for CC(=O)N1CCC[C@]12CC=CCCCC1(CCCC=CCCCCCC[C@@](C)(C(=O)N[C@@H](Cc3ccccc3)C(=O)N[C@@H](Cc3csc4ccccc34)C(=O)N[C@@H](Cc3c[nH]cn3)C(N)=O)NC(=O)[C@H](CCC(N)=O)NC(=O)[C@H](Cc3ccccc3)NC(=O)[C@H](C)NC(=O)[C@H](C)NC(=O)[C@H](CC(=O)O)NC(=O)[C@H](CC(=O)O)NC1=O)NC(=O)[C@H](C)NC(=O)[C@H](CC(=O)O)NC2=O (some centres unmarked) [I-360] in the records? 44

All figures here come from patent US20240116985A1.
